# credit: the supplement of paper PMC11208160

- Assay Procedure: recombinant barcode read abundance after kanamycin selection (control-corrected) (log10(CPM+1)); higher = more efficient recombination; sequences stand for … in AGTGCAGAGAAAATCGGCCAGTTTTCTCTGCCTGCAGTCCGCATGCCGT…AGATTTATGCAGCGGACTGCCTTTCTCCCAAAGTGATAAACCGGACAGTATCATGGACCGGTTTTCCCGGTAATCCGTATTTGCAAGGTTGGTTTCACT; site = the 11-nt target
Metric Name: recombinant barcode read abundance (log10)

> print(dat)
                                   residues   value
1  CATCGCACTTGGGTTCTAACCTGTTGCCT (site CATCGCACTAG)  0.0933
2  CATGTACCTTGGGTTCTAACCTGTTGCCT (site CATGTACCTAG)    2.02
3  CAGTATCCTTGGGTTCTAACCTGTTGCCT (site CATTATCCTAG)   0.096
4  TAGGATACTTGGGTTCTAACCTGTTGCAT (site TAGGATACTAT)    1.55
5  ACGATTCCTTGGGTTCTAACCTGTTGCTT (site ACGACTCCTAA)   0.142
6  ACAAAGCCTTGGGTTCTAACCTGTTGCCT (site ACAAAACCTAG)    0.49

Would you mind giving recombinant barcode read abundance (log10) for every sequence in the list below?
1. GCGCCCTCTTGGGTTCTAACCTGTTGCCT (site ACGCCCTCTAG)
2. TCAGGAGCTTGGGTTCTAACCTGTTGCAG (site TCAGGAGCTCC)
3. TGTCCACCTTGGGTTCTAACCTGTTGCCT (site AGTCCACCTAG)
4. TCGGATACTTGGGTTCTAACCTGTTGCGT (site TCGGATACTAC)
5. ACCTCAACTTGGGTTCTAACCTGTTGCCT (site ACGTCAACTAG)
6. GTCTCCTCTTGGGTTCTAACCTGTTGCCT (site GTCCCCTCTAG)
7. TCCAACCCTTGGGTTCTAACCTGTTGCTT (site CAGGGGACTGT)
8. TATCGGCCTTGGGTTCTAACCTGTTGCCT (site TATCGGCCTAG)

Result string:
1: 0.0862; 2: 0.0921; 3: 0.0595; 4: 2.05; 5: 0.188; 6: 2.26; 7: 0.0296; 8: 0.0996

###

- Assay Procedure: recombinant UMI read abundance after kanamycin selection (control-corrected) (log10(CPM+1)); higher = more efficient recombination; extreme values may be limits of the assay; sequences stand for … in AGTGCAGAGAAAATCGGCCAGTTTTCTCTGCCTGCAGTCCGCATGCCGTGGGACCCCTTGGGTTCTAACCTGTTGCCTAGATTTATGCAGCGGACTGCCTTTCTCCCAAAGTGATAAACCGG…AGGTTGGTTTCACT; site = the 11-nt donor
Answer each item with its documented recombinant UMI read abundance (log10).
Answers are plain numbers.

Please give recombinant UMI read abundance (log10) for each item listed below.
1. CGGTTAGCATGGACCGGTTTTCCCGGTAATCCGTATTTGTG (site CTGTTAGCTCA)
2. CATAAAGCATGGACCGGTTTTCCCGGTAATCCGTATTTGAT (site CATAAAGCTAT)
3. TAGCCTTCATGGACCGGTTTTCCCGGTAATCCGTATTTGGG (site TAGCCTTCTCC)
4. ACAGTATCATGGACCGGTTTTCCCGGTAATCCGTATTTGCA (site ATAGTTTCTTG)
5. GAAAGTCCATGGACCGGTTTTCCCGGTAATCCGTATTTGGA (site GAAAGTCCTTC)

Result string:
[0.256, 2.1, 0.0175, 0.0207, 0.0128]
